test system: smell (isovaleric acid) of the socks; assay: Organoleptic evaluation of smell of socks after application onto a bare foot; assay type: in vivo, human; set-up: key: 5: Strong; 4: Slightly strong; 3: Moderate; 2: Slightly weak; 1: Weak; 0: Does not smell; details: 2 g of 0.1% solution in ethanol on a bare foot; smell (isovaleric acid) of socks after 8 hours
Provide the reported Strength of Smell of each item.
Answer with the value's number alone.

Query CC(C)=CCCC(C)=CC1OC(C)CC(C)(C)O1 (centres unmarked) [CITRAL HGA, citral hexylene glycol acetal, reference compound] yields Strength of Smell of 5

Query CC(C)=CCC/C(C)=C/C1OCC(C)O1 (centres unmarked) [CITRAL PGA, citral propylene glycol acetal, reference compound] yields Strength of Smell of 5

Recorded Strength of Smell (molecule CCCCC(CC)COCC1COC(C=C(C)CCC=C(C)C)O1 (centres unmarked) ): 1

Notebook: CCCCCCCCOCC1COC(C=C(C)CCC=C(C)C)O1 (centres unmarked) , Strength of Smell read as 2

Data point: CCCCCOCC1COC(C=C(C)CCC=C(C)C)O1 (centres unmarked) ; Strength of Smell = 2
